These measurements were taken from ChEMBL document CHEMBL1201862.

Record form. Attribute: GI50. Fill in for each entry.
- Tested on: M19-MEL
- test_method_notes: NCI tumour cell line growth inhibition, 48 h
Activity calls are given as the source filed them. Rule as the data show it: active = GI50 up to about 1.1 µM and inactive = higher.

Request: Specify measured GI50 for `O=C(CCc1nnc2s/c(=C\c3ccccc3[N+](=O)[O-])c(=O)n12)Nc1cc(Cl)c(Cl)cc1Cl` .
Result: 43.2 µM (inactive)

Request: For `COc1cc(O)c2c(c1)C(=O)C=C(Cl)C2=O` , write its GI50.
Result: > 100 µM (inactive)

Request: State its GI50: COC(=O)C1C(=O)O[C@@H](c2ccc(OC)cc2)C1C(=O)OC (stereo not given in full)
Result: > 100 µM (inactive)

Request: Answer with the recorded GI50 for the molecule listed here: `COc1ccc(C(=O)O)c2c(=O)c3cccnc3[nH]c12`
Result: > 100 µM (inactive)

Request: State, in one line, measured GI50 of `Cc1cc(N)c2cc(NC(=O)CCCCCCCCC(=O)Nc3ccc4nc(C)cc(N)c4c3)ccc2n1`
Result: 15.4 µM (inactive)

Request: Using known records, supply GI50 for `Cc1ccccc1NC(=O)C(=O)c1c(O)c2ccc(O)cc2oc1=O`
Result: > 100 µM (inactive)

Request: Consider the molecule `C=Cc1cncc(C#N)c1CCc1c(C#N)cncc1C=C` and give its recorded GI50.
Result: > 10 µM (inactive)

Request: Quick one: give measured GI50 for `CCc1nc2cc(/N=N/c3c(O)ccc4ccccc34)ccc2[nH]1`
Result: 18.9 µM (inactive)

Request: Consider the molecule `Cc1c(C(=O)Nc2ccc(Cl)cc2)nc(N)nc1-c1cccc(Cl)c1` and give its recorded GI50.
Result: > 100 µM (inactive)

Request: Answer with the recorded GI50 for the molecule listed here: COc1ccc(C(=O)C(C(=O)CCC(=O)Nc2ccc(Cl)c(Cl)c2)c2ccc(OC)cc2)cc1 (stereo not given)
Result: > 100 µM (inactive)

###

- Tested on: MOLT-4
- test_method_notes: NCI tumour cell line growth inhibition, 48 h
Calls of active or inactive are those of the source. Cut-off read from the data, not from the text of the source: active = GI50 up to about 1.1 µM and inactive = higher.
Log the outcome using a class from class 1 for active, class 0 for inactive

Request: Tell me the assay call for `CCOC(=O)NC(=O)c1cn(CCCO)c(=O)[nH]c1=O` please.
Result: class 0

Request: Assay result, entry COc1cccc(C2CC(=O)c3cccn32)c1 (stereo unspecified) — outcome?
Result: class 0

Request: Per the records of this test, what outcome belongs to `O=C(c1ccc(-c2ccccc2)cc1)N(Cc1cccnc1)C(=S)N(Cc1cccnc1)C(=O)c1ccc(-c2ccccc2)cc1` ?
Result: class 1

Request: Recorded test call requested for `O=[N+]([O-])C(=C(c1ccccc1)c1ccccc1)[N+](=O)[O-]`
Result: class 0

Request: Test call for this molecule, please: `NC1(C(=O)O)CCCC1`
Result: class 0

Request: # fetch the recorded call for `Cc1ccc(C(=O)N/N=C(\N=N\c2ccccc2C(=O)O)c2ccc(N(C)C)cc2)cc1` here
Result: class 0

###

- Tested on: SF-539
- test_method_notes: NCI tumour cell line growth inhibition, 48 h
The source made the active and inactive calls. Cut-off read from the data, not from the text of the source: active = GI50 up to about 1.1 µM and inactive = higher. Where a SMILES comes first, the peptide text is derived from it. Bridges are numbered along the chain shown (N, C = ends). [ ]: non-standard residue; d: D form. The star is where a group is joined. ξ: configuration not given here. X28 = O=C(/C=C/C=C/C=C/C=C/C=C/C(=O)*)NC1=C(O)CCC1=O; NMeA = CN[C@@H](C)C(=O)O; ξF = NC(Cc1ccccc1)C(=O)O; ξA = CC(N)C(=O)O
measured_attribute: GI50

Request: Answer with reported GI50 of `CCC/C(Cl)=N\OC(=O)Nc1ccc(Br)cc1`
Result: 17.5 µM (inactive)

Request: Give a short answer stating reported GI50 for CC1NC(=O)[C@H](C)N(C)C(=O)[C@@H]2CCCN2C(=O)[C@@H](NC(=O)C(Cc2ccccc2)NC(=O)/C=C/C=C/C=C/C=C/C=C/C(=O)NC2=C(O)CCC2=O)COC(=O)[C@@H]2CCCN2C1=O (stereo partly drawn) (X28-[ξF]SP[NMeA][ξA]P; ester 2-C) .
Result: > 100 µM (inactive)

Request: Identify measured GI50 associated with `O=C(c1ccc(-c2ccccc2)cc1)N(Cc1cccnc1)C(=S)N(Cc1cccnc1)C(=O)c1ccc(-c2ccccc2)cc1`
Result: > 100 µM (inactive)

###

- System: SN12C
- test_method_notes: NCI tumour cell line growth inhibition, 48 h
The source made the active and inactive calls. Cut-off read from the data, not from the text of the source: active = GI50 up to about 1.1 µM and inactive = higher. Positions of bridges follow the written chain, without caps; N, C: chain ends. Residues, ends and D or L forms follow the SMILES beside them.
Hi there, I'd appreciate the recorded GI50 for every entry that follows.

Request: Please give the documented GI50 of CC(=O)OC1(C#N)CC2OC1C1NC21 (stereo not drawn)
Result: > 100 µM (inactive)

Request: Please supply the value of reported GI50 for the item `Cc1cc2cc3cc(C)c(N)cc3nc2cc1N`
Result: 0.448 µM (active)

Request: Please report the measured GI50 for `Cc1ccc(C(=O)N/N=C(\N=N\c2ccccc2C(=O)O)c2ccc(N(C)C)cc2)cc1`
Result: > 100 µM (inactive)

Request: Quote GI50 reported for `CN(C)c1[se]nc2c1c(=O)n(C)c(=O)n2C` please.
Result: > 100 µM (inactive)

Request: Please supply the value of reported GI50 for the item `O=[N+]([O-])C(=C/c1ccccc1)/C(=C\c1ccccc1)[N+](=O)[O-]`
Result: 23.4 µM (inactive)

Request: Please list GI50 recorded for the molecule CCC(C)C1NC(=O)C(CC(C)C)NC(=O)C(C(C)C)NC(=O)C2CSSCC(NC1=O)C(=O)N2 (stereo not drawn) (cyclo(CCVLI); disulfide 1-2; configuration not given here)
Result: 0.192 µM (active)

Request: Determine from records and report GI50 for CC(=O)C1(O)CCC2(O)C3(O)CC=C4CC(O)CCC4(C)C3CC(OC(=O)c3ccc(O)cc3)C12C.COC1CC(OC2C(C)OC(OC3C(C)OC(OC4CCC5(C)C(=CCC6(O)C5CC(OC(=O)c5ccc(O)cc5)C5(C)C(O)(C(C)=O)CCC65O)C4)CC3OC)CC2OC)OC(C)C1O (stereo not drawn)
Result: 31.3 µM (inactive)

Request: Give the reported value of GI50 for this record: `CC(=O)C(C)(C)CCC(C)(C)C(C)=O`
Result: > 100 µM (inactive)

###

Kindly supply the reported GI50 values for the records listed here.
- Tested on: UACC-62
- test_method_notes: NCI tumour cell line growth inhibition, 48 h
Calls of active or inactive are those of the source. Rule as the data show it: active = GI50 up to about 1.1 µM and inactive = higher.

Request: Indicate its recorded GI50; the molecule in question is `O=C(c1cccs1)N(C(=O)N1CCC(c2ccccc2)CC1)c1ccccc1`
Result: 50.6 µM (inactive)

Request: Identify measured GI50 associated with CC(C)C1COC(c2ccc3ccccc3c2-c2c(O[Si](C)(C)C(C)(C)C)ccc3ccccc23)=N1 (stereo not given)
Result: 15.8 µM (inactive)

Request: Quickly give me recorded GI50 for `C/C(CCN(C)C)=N/O`
Result: 1.15 µM (inactive)

Request: Entry Cc1ccc(S(=O)(=O)N2CC(CCN)c3ccccc32)cc1 (stereo not given) needs its GI50 filled in; supply it.
Result: 3.68 µM (inactive)

Request: Supply GI50 value. Item: CN(C(=O)C12C3C4C1C1C2C3C41C(O)C(C)(C)C)C(C)(C)C (stereo not given)
Result: > 100 µM (inactive)

Request: Output GI50 of `Cc1ccc(C)c(COCCOCn2ccc(N)nc2=O)c1`
Result: > 100 µM (inactive)

Request: Determine its reported GI50: `O=C(CCc1nnc2s/c(=C\c3ccccc3[N+](=O)[O-])c(=O)n12)Nc1cc(Cl)c(Cl)cc1Cl`
Result: 40.4 µM (inactive)

Request: Tell us which GI50 value is on record for CC(=O)OCC12C(OC(C)=O)C(=O)C3C(OC(C)=O)C14OC3(C)COC(=O)c1cccnc1C(C)C(C)C(=O)OC(C(OC(C)=O)C2OC(C)=O)C4(C)O (stereo not given)
Result: > 100 µM (inactive)

Request: Please report GI50 for the following molecule: `Cc1nc2ccccc2[nH]/c1=N/Nc1ccccc1`
Result: 16.3 µM (inactive)

Request: Fill in reported GI50 for this entry: `COC(=O)C(=O)CC(=O)CCn1ncc(Cl)c(Cl)c1=O`
Result: 10 µM (inactive)

###

Give measured GI50 for each item. Keep answers brief.
- Test system: TK-10
- test_method_notes: NCI tumour cell line growth inhibition, 48 h
Activity calls are given as the source filed them. Cut-off read from the data, not from the text of the source: active = GI50 up to about 1.1 µM and inactive = higher.

Request: Using the record for `Cc1ncc(C/N=C/c2ccc(Cl)cc2)c(N)n1` , state its measured GI50.
Result: > 100 µM (inactive)

Request: Report GI50, nothing else, for this compound: O=C1NC(=O)C2C1N(Cc1ccccc1)C(=O)N2Cc1ccccc1 (stereo not given)
Result: > 100 µM (inactive)

Request: Give the measured GI50 for CCC1(CN(C)C)CC/C(=C\c2ccc(OC)c(OC)c2)C1=O (stereo not given)
Result: > 100 µM (inactive)

Request: Name the recorded GI50 of the item `COc1ccc2c(c1)C(=O)[C@@](Nc1ccc(C=O)cc1)(OC)[C@@](OC)(c1ccc([N+](=O)[O-])cc1)O2` in your answer.
Result: > 10 µM (inactive)

Request: Retrieve GI50 measured for `Cc1c(-c2ccccc2)cc(O)c2nc3ccccc3n12` and print it.
Result: > 100 µM (inactive)
